- Tested on: pregnant rats
- assay-text: Abortive test with pregnant rats (antigestagenic effect)
- Format: in vivo, rat
- condition-label: 0.3 mg/animal/day s.c., d5-d7 p.c., autopsy d9 p.c.
property-name: Abortion Rate n aborting/n treated rats

Value lookup for Abortion Rate n aborting/n treated rats; key = CC#C[C@]1(O)CC[C@H]2[C@@H]3CCC4=CC(=O)CCC4=C3[C@@H](c3ccc(C(C)=O)cc3)C[C@@]21C [D, reference compound]
4/4

Value lookup for Abortion Rate n aborting/n treated rats; key = C#CC[C@]1(O)C=C[C@H]2[C@@H]3CCC4=CC(=O)CCC4=C3[C@@H](c3ccc(C(C)=O)cc3)C[C@@]21C [B]
4/4

Value lookup for Abortion Rate n aborting/n treated rats; key = CC#C[C@]1(O)C=C[C@H]2[C@@H]3CCC4=CC(=O)CCC4=C3[C@@H](c3ccc(C(C)=O)cc3)C[C@@]21C [A]
4/4

Value lookup for Abortion Rate n aborting/n treated rats; key = CC#C[C@]1(O)CC[C@H]2[C@@H]3CCC4=CC(=O)CCC4=C3[C@@H](c3ccc(N(C)C)cc3)C[C@@]21C [C, reference compound]
0/4
